Exercise: state measured TGI for each of the compounds provided.
Test system: RXF 393 renal
experiment: NCI tumour cell line growth inhibition, 48 h

Ask | Report TGI for C[C@@H]1CC[C@@H]2[C@@H](C)C[C@H]3[C@@H]4C(C)(C)OC(=O)[C@]4(C)C(=O)[C@@]23C1=O please.
Reply | > 100 µM

Ask | Another compound to check: C[N+](C)([O-])Cc1cc(-c2ccccc2)ccc1O
Reply | > 100 µM

Ask | // next record COc1ccc(CNc2cnc3cc(N)cc(N)c3n2)cc1
Reply | 49.8 µM

Ask | Same lookup for CCN(CC)C(=S)SS(=O)(=O)c1ccccc1[N+](=O)[O-] , please.
Reply | 45.4 µM

Ask | Can you handle COc1ccc2c(c1)C(=O)c1c-2n(CCCN)c(=O)c2cc(OC)c(OC)cc12 next?
Reply | 1.88 µM

Ask | Ok, now OC1CCC[C@@H]1Sc1ccccc1 (stereo not given in full)
Reply | > 100 µM

Ask | Try this compound next: O=C1C(=O)N(c2cccc(C(F)(F)F)c2)C(=O)C(=O)C1c1nc2ccccc2s1
Reply | > 100 µM

Ask | Field entry: O=c1c(-c2ccc(O)cc2)coc2cc(OC3OC(CO)C(O)C(O)C3O)cc(O)c12 (stereo not given)
Reply | > 100 µM

Ask | Continue with CC(=O)Oc1c2oc3cc(O)c(O)cc3c2c(OC(C)=O)c2oc3cc(O)c(O)cc3c12
Reply | 32.6 µM

Ask | What do you get for CC1CC(C)C2=NOS3=C2C1=NO3 (stereo not given) ?
Reply | > 100 µM

Values were extracted from PubChem BioAssay (NCI).
